Recorded values, source ChEMBL document CHEMBL1151159.

Test system: KM-20L2
assayDetails: Antineoplastic activity against human KM20L2 cells
Assay type: functional
testSettings: read-out: ED50 (the source's name)
endpoint: EC50 (µg/mL)

COC1=Cc2ccnc3ccnc(c23)C1=O	2.1

(1) COc1cc2ccnc3c2c(c1O)N(C)C=C3
(2) COc1cc2ccnc3c2c(c1OC)NC=C3
Compare 1 and 2 by numeric EC50 and name the larger one. # answer = label of selected item
2
